- study.target: T1, PAH1(115–212) for NMR (UniProt Q60520 115-212)
- T1 construct: Sin3A PAH1 domain, residues 115–212; Same construct as m29; also called apo-PAH1; 15N-labelled PAH1(115–212); source: 15N labelled in M9 minimal media
- T1 sequence (looked up): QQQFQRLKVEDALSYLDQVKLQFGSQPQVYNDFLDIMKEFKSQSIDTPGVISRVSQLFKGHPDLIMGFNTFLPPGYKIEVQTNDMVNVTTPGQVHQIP
- method.summary: NMR titration; 15N-HSQC of 150 µM 15N-labelled PAH1(115–212) with 150 µM unlabelled Tet1(878–911) (1:1; also sub-stoichiometric ratio); 303 K; 20 mM Tris-HCl pH 7.4, 50 mM NaCl, 1 mM DTT; average minimal shift analysis
- condition.notes: both partners purified
pKd: −log10 of the molar value.
readout.type: pKd

Qu. Reported pKd for LSLMKDRRLTLEQVVAIEALTQLSEAPSESSSPS (domain or fragment, UniProt Q3URK3 861-894, looked up, Same construct as m24; also called WT) [Tet1-SID(878–911) for NMR] : what is it?
Ans. > 7.00
